Attribution: patent US20250019371A1

measured.target: β-catenin/BCL9 PPI (Homo sapiens, UniProt P35222)
Construct: Full-length β-catenin (residues 1-781); host or cells: E. coli BL21 DE3
protocol.details: AlphaScreen competitive inhibition assay of β-catenin/BCL9 PPI
Type: binding
test.settings: Table 1, AlphaScreen, inhibitors 16-26; Ki derived from IC50; read-out: Ki
pKi: −log10 of the molar value.
readout: pKi

Reported pKi for CC(C)(Oc1cccc(N2CCCC(C(=O)N(Cc3ccc(-c4cccs4)cc3)C3CC3)C2)c1)C(=O)NS(=O)(=O)c1ccccc1 (centres unmarked) was ≥ 5.00

The reported value for CC(C)(Oc1cccc(N2CCCC(C(=O)N(Cc3ccc(-c4cccs4)cc3)C3CC3)C2)c1)C(=O)NS(=O)(=O)c1cccc(O)c1 (centres unmarked) in terms of pKi is ≥ 5.00

Sure, the documented pKi for CC(C)(Oc1cccc(N2CCCC(C(=O)N(Cc3ccc(-c4cccs4)cc3)C3CC3)C2)c1)C(=O)NS(=O)(=O)c1ccc(C#N)cc1 (centres unmarked) is ≥ 5.30

Lab note: measured pKi of CC(C)(Oc1cccc(N2CCCC(C(=O)N(Cc3ccc(-c4cccs4)cc3)C3CC3)C2)c1)C(=O)NS(C)(=O)=O (centres unmarked) was ≥ 4.52

Input CC(C)(C)OC(=O)C(C)(C)Oc1cccc(N2CCCC(C(=O)N(Cc3ccc(-c4cccs4)cc3)C3CC3)C2)c1 (centres unmarked) . Output pKi: < 4.05

# pKi of CC(C)S(=O)(=O)NC(=O)C(C)(C)Oc1cccc(N2CCCC(C(=O)N(Cc3ccc(-c4cccs4)cc3)C3CC3)C2)c1 (centres unmarked) = ≥ 4.52

// pKi value for COC(=O)C(C)(C)Oc1cccc(N2CCCC(C(=O)N(Cc3ccc(-c4cccs4)cc3)C3CC3)C2)c1 (centres unmarked) : < 4.05

Please fill in: pKi reported for COc1ccc(S(=O)(=O)NC(=O)C(C)(C)Oc2cccc(N3CCCC(C(=O)N(Cc4ccc(-c5cccs5)cc4)C4CC4)C3)c2)cc1 (centres unmarked) = ≥ 5.30

Lab note: COc1cccc(S(=O)(=O)NC(=O)C(C)(C)Oc2cccc(N3CCCC(C(=O)N(Cc4ccc(-c5cccs5)cc4)C4CC4)C3)c2)c1 (centres unmarked) gave pKi of ≥ 5.30

Measured pKi, CC(C)(Oc1cccc(N2CCCC(C(=O)N(Cc3ccc(-c4cccs4)cc3)C3CC3)C2)c1)C(=O)NS(=O)(=O)C1CC1 (centres unmarked) : ≥ 4.52

get_value(item= CC(C)(Oc1cccc(N2CCCC(C(=O)N(Cc3ccc(-c4cccs4)cc3)C3CC3)C2)c1)C(=O)NS(=O)(=O)c1cccc(C#N)c1 (centres unmarked) , readout=pKi) returns ≥ 5.00

* * *

measured.target: β-catenin/BCL9 PPI (Homo sapiens)
Construct: Full-length β-catenin (residues 1-781); host or cells: E. coli BL21 DE3
Sequence (P35222 1-781): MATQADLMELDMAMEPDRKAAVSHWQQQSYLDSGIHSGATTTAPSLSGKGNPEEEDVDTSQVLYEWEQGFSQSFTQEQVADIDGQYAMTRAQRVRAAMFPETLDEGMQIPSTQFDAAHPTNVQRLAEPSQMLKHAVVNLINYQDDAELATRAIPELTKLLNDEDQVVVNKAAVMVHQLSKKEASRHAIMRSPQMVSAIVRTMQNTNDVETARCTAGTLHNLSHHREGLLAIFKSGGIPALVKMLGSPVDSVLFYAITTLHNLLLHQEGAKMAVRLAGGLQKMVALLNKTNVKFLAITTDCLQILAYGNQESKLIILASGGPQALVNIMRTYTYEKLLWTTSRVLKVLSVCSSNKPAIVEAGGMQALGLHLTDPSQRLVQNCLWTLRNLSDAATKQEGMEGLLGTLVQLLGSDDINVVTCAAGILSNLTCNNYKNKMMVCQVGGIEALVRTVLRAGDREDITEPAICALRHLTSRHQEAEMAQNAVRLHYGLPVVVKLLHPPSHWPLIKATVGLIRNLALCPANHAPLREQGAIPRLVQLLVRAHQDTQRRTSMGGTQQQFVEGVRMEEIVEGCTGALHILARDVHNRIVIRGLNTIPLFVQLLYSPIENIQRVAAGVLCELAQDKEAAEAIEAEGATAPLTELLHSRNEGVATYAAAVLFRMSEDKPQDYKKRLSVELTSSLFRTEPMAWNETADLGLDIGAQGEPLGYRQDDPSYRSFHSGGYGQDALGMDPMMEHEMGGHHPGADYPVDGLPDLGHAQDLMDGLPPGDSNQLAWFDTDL
protocol.details: AlphaScreen competitive inhibition assay of β-catenin/BCL9 PPI
Assay type: binding
test.settings: AlphaScreen competitive inhibition assay; read-out: Ki for disruption of the β-catenin/BCL9 PPI
readout: pKi
Just the number, please; pKi means minus log10 of the concentration in mol/L.

Reported pKi (β-catenin/BCL9 PPI (Homo sapiens)) for entry CC(C)(Oc1cccc(N2CCC[C@H](C(=O)N(Cc3ccc(-c4cccs4)cc3)C3CC3)C2)c1)C(=O)NS(=O)(=O)c1ccc(C#N)cc1 is 5.44

* * *

measured.target: β-catenin/BCL9 PPI (Homo sapiens, UniProt P35222)
Construct: Full-length β-catenin (residues 1-781); host or cells: E. coli BL21 DE3
protocol.details: AlphaScreen competitive inhibition assay of β-catenin/BCL9 PPI
Type: binding
test.settings: Table 1, AlphaScreen, inhibitors 16-26
pIC50: −log10 of the molar value.
For each entry below, report its pIC50 value.

What the record says about CC(C)(Oc1cccc(N2CCCC(C(=O)N(Cc3ccc(-c4cccs4)cc3)C3CC3)C2)c1)C(=O)NS(=O)(=O)c1cccc(O)c1 (centres unmarked) : pIC50 is ≥ 5.00

The measured pIC50 associated with CC(C)(C)OC(=O)C(C)(C)Oc1cccc(N2CCCC(C(=O)N(Cc3ccc(-c4cccs4)cc3)C3CC3)C2)c1 (centres unmarked) reads < 4.00

The recorded pIC50 for CC(C)S(=O)(=O)NC(=O)C(C)(C)Oc1cccc(N2CCCC(C(=O)N(Cc3ccc(-c4cccs4)cc3)C3CC3)C2)c1 (centres unmarked) is ≥ 4.52

The compound identified as CC(C)(Oc1cccc(N2CCCC(C(=O)N(Cc3ccc(-c4cccs4)cc3)C3CC3)C2)c1)C(=O)NS(C)(=O)=O (centres unmarked) registered its pIC50 at ≥ 4.52

The measured pIC50 associated with CC(C)(Oc1cccc(N2CCCC(C(=O)N(Cc3ccc(-c4cccs4)cc3)C3CC3)C2)c1)C(=O)NS(=O)(=O)c1ccc(C#N)cc1 (centres unmarked) reads ≥ 5.30

For record CC(C)(Oc1cccc(N2CCCC(C(=O)N(Cc3ccc(-c4cccs4)cc3)C3CC3)C2)c1)C(=O)NS(=O)(=O)c1ccccc1 (centres unmarked) the listed pIC50 is ≥ 5.00

Lookup result for COC(=O)C(C)(C)Oc1cccc(N2CCCC(C(=O)N(Cc3ccc(-c4cccs4)cc3)C3CC3)C2)c1 (centres unmarked) ; measured pIC50: < 4.00

Looking up CC(C)(Oc1cccc(N2CCCC(C(=O)N(Cc3ccc(-c4cccs4)cc3)C3CC3)C2)c1)C(=O)NS(=O)(=O)C1CC1 (centres unmarked) , I see its pIC50 listed as ≥ 4.52

* * *

measured.target: β-catenin/BCL9 PPI (Homo sapiens, UniProt P35222)
Construct: Full-length β-catenin (residues 1-781); host or cells: E. coli BL21 DE3
protocol.details: AlphaScreen competitive inhibition assay of β-catenin/BCL9 PPI
Format: binding
test.settings: first Table 3, AlphaScreen, inhibitors 31-35; read-out: Ki
pKi: −log10 of the molar value.
Exercise: for every item that follows, state its recorded pKi.

The measured pKi associated with CC(C)(Oc1cccc(N2CCCC(C(=O)N(Cc3ccc(-c4cccs4)cc3)C3CC3)C2)c1)C(=O)NS(=O)(=O)C(F)(F)F (centres unmarked) reads ~3.77

// pKi lookup, compound = COc1ccc(S(=O)(=O)NC(=O)C(C)(C)Oc2cccc(N3CCC[C@H](C(=O)N(Cc4ccc(-c5cccs5)cc4)C4CC4)C3)c2)cc1 , result: ≥ 4.52

For record CC(C)(Oc1cccc(N2CCC[C@H](C(=O)N(Cc3ccc(-c4cccs4)cc3)C3CC3)C2)c1)C(=O)NS(=O)(=O)c1cccc(C#N)c1 the listed pKi is ≥ 5.00

According to the records, this compound CC(C)(Oc1cccc(N2CCC[C@@H](C(=O)N(Cc3ccc(-c4cccs4)cc3)C3CC3)C2)c1)C(=O)NS(=O)(=O)C1CC1 displays pKi of ≥ 4.52

The reported value for CC(C)(Oc1cccc(N2CCC[C@H](C(=O)N(Cc3ccc(-c4cccs4)cc3)C3CC3)C2)c1)C(=O)NS(=O)(=O)C1CC1 in terms of pKi is ≥ 4.52
